biological target: Clostridium difficile toxin B, soluble full-length (TechLab) (Clostridium difficile, UniProt P18177 2-2366); assay: cell-based or functional assay
Sequence (P18177 2-2366 limits assumed): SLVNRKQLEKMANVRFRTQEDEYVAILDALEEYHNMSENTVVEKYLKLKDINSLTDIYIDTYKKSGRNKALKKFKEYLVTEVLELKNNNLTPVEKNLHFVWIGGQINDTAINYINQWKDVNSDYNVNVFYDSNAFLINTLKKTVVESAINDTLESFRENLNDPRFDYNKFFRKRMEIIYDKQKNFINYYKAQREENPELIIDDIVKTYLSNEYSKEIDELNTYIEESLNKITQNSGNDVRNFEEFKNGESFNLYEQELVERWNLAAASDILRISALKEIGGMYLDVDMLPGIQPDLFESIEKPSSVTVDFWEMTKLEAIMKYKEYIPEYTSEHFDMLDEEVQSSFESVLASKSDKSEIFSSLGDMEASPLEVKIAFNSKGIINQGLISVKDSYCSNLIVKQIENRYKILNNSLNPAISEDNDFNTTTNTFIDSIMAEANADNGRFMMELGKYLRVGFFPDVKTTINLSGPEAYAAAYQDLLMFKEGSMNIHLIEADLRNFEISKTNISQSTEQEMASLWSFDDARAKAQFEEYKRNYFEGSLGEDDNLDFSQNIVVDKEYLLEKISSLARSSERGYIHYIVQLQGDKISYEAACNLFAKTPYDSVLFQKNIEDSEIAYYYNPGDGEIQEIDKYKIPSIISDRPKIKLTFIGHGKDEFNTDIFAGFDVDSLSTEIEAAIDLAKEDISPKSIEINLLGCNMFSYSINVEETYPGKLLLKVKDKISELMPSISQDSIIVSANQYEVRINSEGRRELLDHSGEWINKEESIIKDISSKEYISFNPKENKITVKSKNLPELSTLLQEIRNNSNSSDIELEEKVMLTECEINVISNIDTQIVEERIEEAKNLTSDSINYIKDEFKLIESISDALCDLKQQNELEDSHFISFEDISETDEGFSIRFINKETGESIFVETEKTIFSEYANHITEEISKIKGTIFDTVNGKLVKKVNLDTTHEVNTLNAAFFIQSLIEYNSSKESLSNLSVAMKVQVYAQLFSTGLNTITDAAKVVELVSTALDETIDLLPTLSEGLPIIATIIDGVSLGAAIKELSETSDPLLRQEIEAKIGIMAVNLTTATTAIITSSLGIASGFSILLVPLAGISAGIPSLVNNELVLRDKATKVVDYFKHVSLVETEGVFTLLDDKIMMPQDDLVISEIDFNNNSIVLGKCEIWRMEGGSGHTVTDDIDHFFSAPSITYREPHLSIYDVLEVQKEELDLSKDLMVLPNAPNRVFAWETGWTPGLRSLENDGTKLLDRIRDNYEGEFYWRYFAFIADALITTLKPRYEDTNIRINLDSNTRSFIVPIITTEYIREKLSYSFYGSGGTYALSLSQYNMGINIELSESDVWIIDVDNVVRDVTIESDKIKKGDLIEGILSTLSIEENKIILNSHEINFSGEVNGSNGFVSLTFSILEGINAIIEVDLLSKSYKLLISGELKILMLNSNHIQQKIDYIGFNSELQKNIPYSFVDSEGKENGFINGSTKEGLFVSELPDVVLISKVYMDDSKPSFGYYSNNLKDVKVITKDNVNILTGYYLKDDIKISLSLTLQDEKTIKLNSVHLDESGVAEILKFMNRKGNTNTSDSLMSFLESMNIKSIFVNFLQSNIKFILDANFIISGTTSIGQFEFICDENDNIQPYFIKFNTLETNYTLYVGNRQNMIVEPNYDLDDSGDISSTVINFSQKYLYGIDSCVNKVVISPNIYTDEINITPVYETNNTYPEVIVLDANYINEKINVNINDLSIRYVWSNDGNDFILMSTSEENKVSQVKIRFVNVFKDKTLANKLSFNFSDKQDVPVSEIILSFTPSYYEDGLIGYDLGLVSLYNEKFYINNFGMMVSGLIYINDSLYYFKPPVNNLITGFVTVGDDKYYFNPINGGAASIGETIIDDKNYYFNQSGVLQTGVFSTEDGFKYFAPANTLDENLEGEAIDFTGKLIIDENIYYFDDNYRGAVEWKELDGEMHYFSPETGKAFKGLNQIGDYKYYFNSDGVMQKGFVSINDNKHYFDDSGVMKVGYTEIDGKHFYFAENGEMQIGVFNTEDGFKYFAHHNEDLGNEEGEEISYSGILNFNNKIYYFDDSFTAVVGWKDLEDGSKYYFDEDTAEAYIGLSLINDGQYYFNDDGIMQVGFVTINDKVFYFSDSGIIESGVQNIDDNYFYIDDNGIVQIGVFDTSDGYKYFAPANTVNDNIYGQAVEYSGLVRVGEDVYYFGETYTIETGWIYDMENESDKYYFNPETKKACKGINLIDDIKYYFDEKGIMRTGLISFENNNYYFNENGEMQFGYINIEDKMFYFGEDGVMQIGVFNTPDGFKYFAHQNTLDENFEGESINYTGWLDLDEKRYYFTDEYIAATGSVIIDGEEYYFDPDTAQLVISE
recorded_metric: IC50, Vero cell viability (neutralization), Trial 2, 0.1 pM Toxin B (pM)
Numbers only; they are read as pM.

Item under review: H1H3337P (antibody, V domains shown) VH: EVQLVESGGGLVQPGGSLRLSCAASGFTFSIYAMSWVRQAPGKGLEWVSGISGSGGRTYYADSVKGRFTISRDNSKNTLYLQMNSLRVEDTAVYYCARGWELLNFWGQGTLVTVSS VL: DIQMTQSPSSLSASVGDRVTITCRASQGISNNLAWFQQKPGKAPKSLIYAASSLKSGVPSKFSGSGSGTDFTLTINSLQPEDFATYYCHQYNSYPPTFGPGTKVDIKR . Reported IC50, Vero cell viability (neutralization), Trial 2, 0.1 pM Toxin B?
980

Consider next the binder H1H3339P (antibody, V domains shown) VH: EVQLVESGGGLVQPGGSLRLSCAVSGFTFSIYAMSWVRQAPGKGLEWVSAISGSGDKTYYADSVKGRFTISRDNSKNTLYLQMNSLRAEDTAVFYCARGWELLNYWGQGTLVTVSS VL: DIQMTQSPSSLSASVGDRVTITCRASLDISNFLAWFQQKPGTAPKSLIYSASSLRTGVPSKFSGSGSGTDFTLTISSLQPEDFATYYCQQYSSYPPTFGPGTKVDIKR in the same way.
270

Now the same for H1H3344P (antibody, V domains shown) VH: EVQLVESGGGLVQPGGSLRLSCAASGFTFKIYAMSWVRQGPGKGLEWVSAISGNGDKTYYTDSVQGRFTISRDNSKNTLFLQMNSLRAEDTAIYYCARGWELLNYWGQGTLVTVSS VL: DIQMTQSPSSLSASIGDRVTITCRASQDISNSLAWFQQKPGKAPKSLIYAASSLQSGVPSRFSGSGSGTDFTLTISSLQPEDFATYYCQQYIPFPPTFGPGTKVDIKR
400

Next binder up: H1H3347P (antibody, V domains shown) VH: EVQLVESGGGLVQPGGSLRLSCVASGFTFTSYAMSWVRQAPGRGLQWVSAIGGSGDSIYYADSVKGRFTISRDNSKNTLYLQMDSLRAEDTAVYYCARGWELLNYWGQGTLVTVSS VL: DIQMTQSPSSLSASVGDRVTITCRASQDIGNFLAWFQQKPGKAPKSLIYAASSLKSGVPSKISGSGSGTDFTLTINSLQPEDFATYYCQQYNIYPPTFGPGTKVDIKR
90
